Hello, the source for this data is patent US7776862B2, in case you need it.

Below is a list of entries, each paired with its recorded IC50 value.
measured-on: human CXCR3 (N-delta 4) (Homo sapiens, UniProt P49682)
Construct: CD8 leader; Flag tag; expressed in transfected cells; membranes used
Sequence (P49682 5-368 limits assumed): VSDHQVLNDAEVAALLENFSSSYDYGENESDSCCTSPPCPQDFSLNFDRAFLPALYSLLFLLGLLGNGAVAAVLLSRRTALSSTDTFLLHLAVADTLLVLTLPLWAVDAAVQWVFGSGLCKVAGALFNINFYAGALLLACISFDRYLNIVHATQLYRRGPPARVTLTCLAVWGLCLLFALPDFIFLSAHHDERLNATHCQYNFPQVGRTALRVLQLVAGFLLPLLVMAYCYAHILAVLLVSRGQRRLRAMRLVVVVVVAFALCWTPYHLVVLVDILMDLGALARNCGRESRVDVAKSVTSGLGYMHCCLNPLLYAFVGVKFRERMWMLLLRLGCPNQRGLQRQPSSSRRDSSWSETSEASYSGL
assay-info: Human CXCR3 (N-delta 4) scintillation proximity assay (SPA), [125I] IP-10 binding
particulars: IC50 rating; Ba/F3-hCXCR3 (N-delta 4) membranes, 25 pM [125I] IP-10

Field IC50 (entry CNC(=O)c1cnc(N2CCN(C3CCN(Cc4ccc(Cl)cc4)CC3)[C@@H](C)C2)c(Cl)c1 ) reads < 25 nM

---

measured-on: human CXCR3 (N-delta 4) (Homo sapiens)
Construct: CD8 leader; Flag tag; expressed in transfected cells; membranes used
assay-info: Human CXCR3 (N-delta 4) scintillation proximity assay (SPA), [125I] IP-10 binding
particulars: IC50 rating; Ba/F3-hCXCR3 (N-delta 4) membranes, 25 pM [125I] IP-10
pIC50: −log10 of the molar value.
assay-metric: pIC50

Some compounds with known pIC50 results, for comparison:
O=C(NCc1ccc(F)c(F)c1)c1cnc(N2CCN(C3CCN(Cc4ccc(Br)cc4)CC3)CC2)c(Cl)c1 [compound 267] = 7.00 to 7.60
O=C(NCCOc1ccccc1)c1cnc(N2CCN(C3CCN(Cc4ccc(-c5ccccc5)cc4)CC3)CC2)c(Cl)c1 [compound 165] = < 7.00
O=C(NCc1cccnc1)c1cnc(N2CCN(C3CCN(Cc4ccc(Cl)cc4)CC3)CC2)c(Cl)c1 [compound 358] = < 7.00
O=C(Nc1ccc(Cl)cn1)c1cnc(N2CCN(C3CCN(Cc4ccc(Cl)cc4)CC3)CC2)c(Cl)c1 [compound 353] = < 7.00
O=C(NCc1cccc(F)c1)c1cnc(N2CCN(C3CCN(Cc4ccc(Br)cc4F)CC3)CC2)c(Cl)c1 [compound 14] = < 7.00

Field pIC50 (entry Cc1ccc(CN2CCC(N3CCN(c4ncc(C(=O)NCc5ccc(Cl)c(Cl)c5)cc4Cl)CC3)CC2)cc1 [compound 183] ) reads < 7.00

Field pIC50 (entry N#Cc1ccc(C(=O)N2CCC(N3CCN(c4ncc(C(=O)NCCOc5ccccc5)cc4Cl)CC3)CC2)cc1 [compound 15] ) reads < 7.00

Field pIC50 (entry C[C@@H]1CN(c2ncc(C(=O)NCc3ccc(Cl)c(Cl)c3)cc2Cl)CCN1C1CCN(Cc2ccc(C#N)cc2)CC1 [compound 282] ) reads 7.00 to 7.60

Field pIC50 (entry C[C@H]1CN(c2ncc(CN)cc2Cl)CCN1C1CCN(Cc2ccc(Cl)cc2)CC1 [compound 440] ) reads < 7.00

Field pIC50 (entry CC[C@H]1CN(c2ncc(C(=O)NCCO)cc2Cl)CCN1C1CCN(C(C(=O)OC)c2ccc(Cl)cc2)CC1 (stereo partly drawn) [compound 274] ) reads 7.00 to 7.60

Field pIC50 (entry C[C@H]1CN(c2ncc(C(=O)NCc3ccc(F)c(F)c3)cc2Cl)CCN1C1CCN(C(=O)c2ccc(C#N)cc2)CC1 [compound 248] ) reads > 7.60

Field pIC50 (entry CCOC(=N)c1cnc(N2CCN(C3CCN(Cc4ccc(Cl)cc4F)CC3)[C@@H](CC)C2)c(Cl)c1 [compound 415] ) reads 7.00 to 7.60

Field pIC50 (entry O=C(NCc1ccccc1)c1cnc(N2CCN(C3CCN(Cc4ccc(Cl)cc4)CC3)CC2)c(Cl)c1 [compound 72] ) reads < 7.00

Field pIC50 (entry CNC(=O)c1cnc(N2CCN(C3CCN(Cc4ccccc4Cl)CC3)[C@@H](C)C2)c(Cl)c1 [compound 349] ) reads < 7.00

Field pIC50 (entry N#Cc1ccc(C(=O)N2CCC(N3CCN(c4ncc(C(=O)NCc5ccc(F)c(F)c5)cc4Br)CC3)CC2)cc1 [compound 298] ) reads 7.00 to 7.60
